Numbers sourced from patent US5834482A.

Biological target: GABA uptake carrier (Rattus norvegicus)
Construct: A crude membrane preparation was prepared from selected brain areas; from tissue
Sequence (P31647 1-627): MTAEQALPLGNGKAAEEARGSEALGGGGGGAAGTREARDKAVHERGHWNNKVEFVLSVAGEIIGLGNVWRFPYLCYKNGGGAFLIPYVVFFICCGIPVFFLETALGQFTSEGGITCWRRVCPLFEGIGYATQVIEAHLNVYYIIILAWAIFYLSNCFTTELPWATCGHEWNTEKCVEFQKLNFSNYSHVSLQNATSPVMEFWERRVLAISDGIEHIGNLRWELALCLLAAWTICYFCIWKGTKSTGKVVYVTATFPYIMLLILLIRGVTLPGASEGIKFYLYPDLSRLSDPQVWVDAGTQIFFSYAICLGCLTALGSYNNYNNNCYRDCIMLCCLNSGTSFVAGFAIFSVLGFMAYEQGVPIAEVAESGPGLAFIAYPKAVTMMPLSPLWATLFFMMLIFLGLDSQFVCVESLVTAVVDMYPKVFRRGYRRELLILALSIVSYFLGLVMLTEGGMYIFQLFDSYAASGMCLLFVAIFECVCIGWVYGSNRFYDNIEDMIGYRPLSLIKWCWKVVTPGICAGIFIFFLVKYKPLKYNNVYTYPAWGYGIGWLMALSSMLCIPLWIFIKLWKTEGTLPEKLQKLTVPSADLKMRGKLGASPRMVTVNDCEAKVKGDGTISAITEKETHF
Assay: 3H-GABA uptake in crude membrane preparation from selected brain areas (in presence of NNC 05-0711)
Assay type: biochemical
Conditions: in vitro; crude brain membrane preparation; 1 mM NNC 05-0711; 30° C., 8 min; 0.9 nM 3H-GABA, 25 nM unlabelled GABA; read-out: IC50 (nM) in vitro, Non-GABA uptake carrier mediated uptake of 3H-GABA
Structures can show the parent of a compound that is named as a salt.

MOLECULE	TARGET_ENTITY	IC50, nM
CCc1noc(-c2cc3c4ccccc4n(CCCN4CCC(O)(c5ccccc5)CC4)c3cn2)n1	GABA uptake carrier (Rattus norvegicus)	932
C=CCN(CC=C)c1ccc2c(c1)c1cc(-c3nc(CC)no3)ncc1n2CCCN1CCC(O)(c2ccccc2)CC1 [Compound 20, hydrochloride]	GABA uptake carrier (Rattus norvegicus)	5380
CCc1noc(-c2cc3c4cc(N(C)C)ccc4n(CCCN4CCC(O)(c5ccccc5)CC4)c3cn2)n1	GABA uptake carrier (Rattus norvegicus)	4690
Cc1noc(-c2cc3c4ccccc4n(CCCN4CCC(O)(c5ccccc5)CC4)c3cn2)n1 [Compound 26, hydrochloride]	GABA uptake carrier (Rattus norvegicus)	1640
Cc1nc(-c2cc3c4ccccc4n(CCCN4CCC(O)(c5ccccc5)CC4)c3cn2)no1 [Compound 28, hydrochloride]	GABA uptake carrier (Rattus norvegicus)	1240
